- Species on record: Rattus norvegicus
- Method notes: Selectivity for Wistar rat dopamine D2 receptor over Wistar rat dopamine D1 receptor
Kindly state fold change (FC) for each of the entries shown.
Answers are plain numbers.

Example compounds with recorded fold change (FC):
> print(dat)
                                   compound  value.measured
1  COc1cc2c(cc1Cl)CCNC2Cc1ccccc1 (centres undefined)               5
2  CN1CCc2cc(Cl)c(O)cc2C1c1ccccc1 (centres undefined)            0.07

// for each compound below, give its fold change (FC)
1. CCCCC1c2cc(OC)c(Cl)cc2CCN1C (centres undefined)
2. Oc1cc2c(cc1Cl)CCNC2Cc1ccccc1 (centres undefined)
3. CN1CCc2cc(Cl)c(O)cc2C1Cc1ccccc1 (centres undefined)
4. COc1cc2c(cc1Cl)CCN(C)C2c1ccccc1 (centres undefined)
5. Oc1cc2c(cc1Cl)CCNC2c1ccccc1 (centres undefined)
6. CCCCC1NCCc2cc(Cl)c(O)cc21 (centres undefined)

1: 2.7; 2: 4.8; 3: 0.6; 4: 0.3; 5: 0.2; 6: 17

Would you mind listing fold change (FC) for each of the following compounds?
1. COc1cc2c(cc1Cl)CCNC2c1ccccc1 (centres undefined)
2. CCCCC1NCCc2cc(Cl)c(OC)cc21 (centres undefined)
3. CCCCC1c2cc(O)c(Cl)cc2CCN1C (centres undefined)
4. COc1cc2c(cc1Cl)CCN(C)C2Cc1ccccc1 (centres undefined)
5. CCCCC1NCCc2cc(O)c(Cl)cc21 (centres undefined)
6. O=C(CCCN1CCC(O)(c2ccc(Cl)cc2)CC1)c1ccc(F)cc1

1: 1.2; 2: 20; 3: 2.3; 4: 0.8; 5: 49; 6: 20

====

- Tested on: D(1A) dopamine receptor (Rattus norvegicus, UniProt P18901)
- Sequence (P18901 whole entry): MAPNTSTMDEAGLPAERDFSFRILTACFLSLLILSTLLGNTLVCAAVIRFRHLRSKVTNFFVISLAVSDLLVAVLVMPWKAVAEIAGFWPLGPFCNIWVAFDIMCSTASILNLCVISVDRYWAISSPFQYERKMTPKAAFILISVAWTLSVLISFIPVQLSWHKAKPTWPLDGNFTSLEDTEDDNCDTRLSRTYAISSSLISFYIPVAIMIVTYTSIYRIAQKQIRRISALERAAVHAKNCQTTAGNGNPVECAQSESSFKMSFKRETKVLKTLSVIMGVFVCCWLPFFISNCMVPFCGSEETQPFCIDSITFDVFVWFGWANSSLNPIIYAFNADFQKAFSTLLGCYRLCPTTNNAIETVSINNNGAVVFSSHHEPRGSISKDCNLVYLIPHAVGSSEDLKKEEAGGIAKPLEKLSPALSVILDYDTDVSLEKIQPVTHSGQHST
- Method notes: Displacement of [3H]SCH23390 from dopamine D1 receptor in Wistar rat striatal membrane by liquid scintillation counting
Provide the recorded Ki for the entries that follow.
One number for each entry, in nM.

> print(dat)
                                   compound  measurement.kind  value.measured
1  CCCCC1c2cc(O)c(Cl)cc2CCN1C (stereo not drawn)                Ki            1140
2  CN1CCc2cc(Cl)c(O)cc2C1c1ccccc1 (stereo not drawn)                Ki            40.3

// lookup Ki | system=D(1A) dopamine receptor (Rattus norvegicus, UniProt P18901) | key= COc1cc2c(cc1Cl)CCN(C)C2c1ccccc1 (stereo not drawn)
815

Where do the numbers come from? From ChEMBL document CHEMBL1154100.
